Sourced from the NTF2 design screens of Basanta et al. (2020)

Could you please report measured protease stability score for the items listed next?
Assay: protease stability score; higher = more stable; yeast display proteolysis, trypsin and chymotrypsin;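 note: relative to predicted unfolded state with 0 unfolded-like and 1 meaning tenfold more protease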
Give bare numbers.

Working through the 4 sequences below one at a time, give protease stability score for each.
1. DEEKEEWEELFKEFEHSIHTGDFRVLAKQMDPHVRIIYGEKRVHGREDAHKLMRDTLEKLGVDHMHVEDNHLQGDFIHLQIRRHVNGRTMTVHFLIWKYNGRWYMHSIKIE
2. SEWEKQLRHMVHLVLLAVRTGNEHLLNELLDPDTRAVFNGVESVGREDMWRMLKHLRIERVRVHDERHDDQGNKARFILLGETQVNVNGKVLETHTEIEIILIKVDGQWTFETLTFRIT
3. DERQKELQEFAERLMRVLNTGDWEHTEQLLDPHVRVHFNGRDFHGWEEIVRFWTELRNQFDHFELRVDTVRIQGDKVENDGNAIFRIDGKELRHRITIHVFLINGKIKRVNVEIR
4. SELSEDLDMYIKIFLRHTETGDEESVRDFADPHAKLEIGDKTFHGRETFLDWFLDLRDRIPNITVRIHEVRIIGDKIHIDLEIIIGEKRTRIHLKIFKVDGVWVLKSLRIN

Solution:
1: 1.43; 2: 1.55; 3: 1.68; 4: 1.58

Working through the 3 sequences below one at a time, give protease stability score for each.
1. TEDEHDARLALHILLELLRTGDEDSLSKYIDPNVRNEVNGQDLHGRNTMERLLKHWRIEEVRVKDVRVQGDKVIMHGREVIRQGDYVIDQDVHWLLVKVDGRWLLHSIHFR
2. DEDRKIFKLVFEITKHAWETGDEEHLDRLLDPNTRIEIGDKILHGREHIEEWVDRVDHLHLHHFRLDDYRYQGDKAIIHGHVNGTSVIDGRSERYTSTIDFIVLKVNGRWRLHSVRVT
3. SEEEEIMQRLLELMLQVFKTGDWKSLTDLLDPHVRLRIHQGDKTLHHHGREEFTERLRKLDEHLGVSRIDVRDHDMHEINGVLIIHLELRVNGRKVHVLILAEKIDGRWLLKSMHLVWH

Solution:
0.918
1.41
1.42

Working through the 3 sequences below one at a time, give protease stability score for each.
1. SESERATRHALRLLWDILLTGDEETWEKMADPNVRVEIGNFHDHGMDSMRLLFHLLLERIDHIHDFTVRHSHSQGDKVENHTEIEVRQGDKSLNITTVFVYVKINGRWINKRVIFK
2. SEDDEKVREAFELWARLVLTGDEEIIEKMVDPHMRIEIGDKELHGRDELRRWIREIRIRDIDVHDVRVQGDKAESDLKVRMDIDGVETRRHTHLIMHKFDGRWIIESIDVR
3. DEVEKFSRDMLHFVRHLWETGDPHLFSRLADPHAQVHIGDKRLHGREEFEKHIEEMIERFPGIRLNLRHFEVQGDKMLVNFEIRVGEKNFTIHLEARKINGRWYIESVEVR

Solution:
1. 0.999
2. 1.36
3. 0.894

Working through the 2 sequences below one at a time, give protease stability score for each.
1. SEEDKYAKLVIRLLEEMIRTGDEESSIRLADPHARVNINGKDMHGREEFTKWIRQFDVVRDFELKDSDYQGDFIFVDGVLDGEVGDKRMRTKVEIIIFKFNGKWRTKEVWVR
2. SDEEEILRRLMQEYYEIFFTGNEEFLHRLADPHVRFLVNGQWYHGREQFTRMFVELLEKLGAKHIELDRHTVRIIDGRIEIIIHTTIKVDGKEHTMHIIVNVEKINGRWILRSMEMEVR

Solution:
[1.38, 1.34]

Working through the 3 sequences below one at a time, give protease stability score for each.
1. SEEHERIKRASEEIWRMSETGDFETFFNNFDPNARSDVDGVFNHGREELHRVLLEFWHKLGLTRIDAKVHDDHSFENHLKVDLEERFDGRTVEVRIISRKYDGRWFYTDLIIIRR
2. DEHTEHSKKLADLIMEWLKTGNEEILRKRMDPNTKIHIEVDGREENTHGWEEFERWLKELGIKHFELKHVHIQGDKSFVDGTLEVNGQRRRIIFIFIVVDGRIQSIRVIVI
3. SEEEEILETVAKKMVDILETGDEDKLTRLADPDVRHRIDVDGRDLSYHGREEINRFMHHWKREWRIDSITVHRVHVINGQIHIDIEVRETVGDKHVIVRRELIIVIVDGRVKRVEIIFR

Solution:
[0.169, 2.12, 0.253]

Working through the 4 sequences below one at a time, give protease stability score for each.
1. EEDEEYLRKHYTDLKHALETGDEDRIMELFDPHVRIDDEDHNLHGREELFRWLHDLGIDHHELRIDDFKIDGDKVSIDGHLRVIVNGRDIHFRTIIRIKKVNGQWRLTHLEIR
2. SEEEKAIIDLFKLWIHAFVTGDEEKLSELMDPRVRLTVGDKHLHGMEIVVEWYRRLRDKIKNLQFRSFEIEDFRIVNGRVELEAVIHIHFNGQMRTIEVRFILEKVDGRWFLKSVEEK
3. SEEEHMLEAFFEDVLQLVMTGDEHRLKHLFDPNVRVETEHEHFHGRELFLQRMLEIRIHDFHIHDFEVQGDKAHVDGRVEGTIDGRTNHWTFTLILEKIDGRWLANKVTWH
4. TEDEDYMHDATREFVTNVATGDEDRLRELMDPRTRHVYNGVRLHGRNLALEFWTHFRRELGVDHIEIRIRDLKFQGDYIHLHTEIVMDFNGVRIIYDTFVRVRKFNGQWMLQSSEIH

Solution:
[1.94, 2.57, 1.55, 0.194]

Working through the 3 sequences below one at a time, give protease stability score for each.
1. SEKHEHAHRIMEIILRAWETGDEESLRELLDPNVRFIQGDKDVVGREEMSRVLHEFREHIRLKSIHIHDKHAINGVFHLDIRIWGNVNGRDDHIEVNYTVVIVDGKIRDLEVRIH
2. NDEEQVAHKFFEKLMHALLTGDEERLKELHDPDVRVDYGNFKLVGREKMVEFWHRFLEEIRLRNTHIETYHIFDGRLEIHSRIHIEVDGKIRIMEVYLEVRKIDGKWRLTHVEFR
3. SEEEEHVWEWAKLVIDLWQTGNEEIFKELVDPNARSEFDGVTIHGMHNDLKRIIEELREIRVRIEIHSVRVIDGVLDVDVKLRLHIGDKQREIKIRLHIVVIDGKLKSVHIDKH

Solution:
[1.06, 1.68, 1.9]
